protocolDetails: binders of probe aFGF2 on microarray, primary screen, stem cell growth factor project, biochemical, small-molecule microarray, fluorescence 635/667 (AID 1067);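 also: measures binding of biotinylated aFGF2 protein to printed compounds on slides; z-score merges feature fluorescence and signal-to-noise across triplicate slides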
measurementContext: higher = more signal
readoutLabel: composite z-score

| molecule | readoutLabel | value |
| --- | --- | --- |
| O=C(NCCN1CCOCC1)[C@@H]1c2ccccc2C(=O)N(C2CCCCC2)[C@H]1c1ccc(CO)cc1 | composite z-score | -0.0616 |
| CC(C)[Si](C#Cc1ccc(Oc2ccccc2)cc1)(O[Si](C#Cc1ccc(Oc2ccccc2)cc1)(C(C)C)C(C)C)C(C)C | composite z-score | -0.133 |
| CCCC=C(CCC)[C@@H](NC(=O)c1cccs1)c1ccc(C(F)(F)F)cc1 | composite z-score | -0.0515 |
| CCCC[C@@H]1C[C@H]1[C@@H](NC(=O)C(C)(C)C)c1ccc(C(F)(F)F)cc1 | composite z-score | -0.0785 |
| C=CC[C@]1(C(=O)NCc2ccccc2)N=C(c2ccc(OCCCO)cc2)O[C@H]1c1ccccc1N=[N+]=[N-] | composite z-score | 0.282 |
| CCCC[C@@H]1C[C@H]1[C@@H](NC(=O)c1ccccc1)c1ccc(C(=O)OC)cc1 | composite z-score | -0.0273 |
| COc1ccc(C#Cc2ccc3c(c2)[C@]2(C(=O)N3)[C@H](c3ccccc3OCCO)N3[C@H](c4ccccc4)[C@H](c4ccccc4)OC(=O)[C@H]3[C@@H]2C(=O)Nc2nc3ccccc3s2)cc1 | composite z-score | -0.0232 |
| CCCC[C@@H]1C[C@H]1[C@@H](NC(=O)c1ccco1)c1ccc(-c2ccccc2)cc1 | composite z-score | -0.176 |
| CC(C)C(O)C1C=CC2C(=O)NC(=O)C2N1Nc1ccc(Cl)cc1Cl (stereo not given) | composite z-score | -0.0675 |
| O=C(N1CCCCC1)[C@]1(Cc2ccccc2)N=C(c2ccc(OCCCO)cc2)O[C@@H]1c1ccccc1 | composite z-score | -0.0183 |
| COCCOC(=O)N1C(=O)[C@@]2(c3ccccc31)[C@H](C(=O)N1CCc3cc(OC)c(OC)cc3C1)[C@H]1C(=O)O[C@H](c3ccccc3)[C@H](c3ccccc3)N1[C@@H]2c1ccc(OCCO)cc1 | composite z-score | -0.279 |
| NC(=O)NCC#Cc1ccc2c(c1)[C@]1(C(=O)N2)[C@H](c2ccccc2OCCO)N2[C@H](c3ccccc3)[C@H](c3ccccc3)OC(=O)[C@H]2[C@@H]1C(=O)Nc1nc2ccccc2s1 | composite z-score | -0.016 |
| COCCOC(=O)N1C(=O)[C@@]2(c3cc(C#CC4(O)CCCCCC4)ccc31)[C@H](c1ccc(OCCO)cc1)N1[C@H](c3ccccc3)[C@H](c3ccccc3)OC(=O)[C@H]1[C@@H]2C(=O)N1CCN(c2ncccn2)CC1 | composite z-score | -0.0242 |
| CCCCCN1CC=CC23O[C@@H]4C=CCCOC(=O)C4[C@H]2C(=O)N(CCCCCO)[C@@H]3C1=O (stereo not given in full) | composite z-score | -0.195 |
| CN1C(=O)C2C=CC(C(O)C3CC=CCC3)N(N(c3ccccc3)c3ccccc3)C2C1=O (stereo not given) | composite z-score | 0.0247 |

* * *

protocolDetails: basal S. cerevisiae growth modulation, no modifier, primary screen, OD600, strain BY4716, 24 h, basal condition (AID 1173)
measurementContext: OD600, 24 h, higher = more signal, called active from +8 up or from −8 down
Catalogue of z-score values

| compound | z-score |
| --- | --- |
| O=C1C[C@@](C(=O)NCC(F)(F)F)(c2ccc([N+](=O)[O-])cc2)[C@@H](c2ccc(CO)cc2I)N1C1CCCCC1 | -0.805 |
| Cc1ccccc1C(O)C1C=CC2C(=O)N(c3ccccc3)C(=O)C2N1Nc1ccc(C(C)C)cc1 (stereo not given) | -0.945 |
| O=C1C2C=CC(C(O)c3cccc4ccccc34)N(Nc3ccccc3F)C2C(=O)N1c1ccccc1 (stereo not given) | -0.103 |
| CCOC(=O)C[C@H]1[C@H](OC(=O)c2ccccc2-c2ccccc2)[C@@H](NC(=O)CC(C)C)c2cc(OCCCO)ccc2N1C(=O)Cc1ccc(OC)cc1 | -0.184 |
| COc1ccc([C@H]2OC[C@@H]3C[C@@H](Cc4ccccc4)C(=O)N32)cc1 | -3.32 |
